- assay_remarks: Solubility
- Type: physicochemical
- measurement_setup: in ethanol at 95° GL
Where a name gives a salt, the structure may show the parent alone.
Quick reference for solubility in ethanol among some molecules
Kindly provide the numeric value in % only, without the unit symbol.

Worked cases, answers included:
{"molecule": "C#CC(CC)(CC)NCC(=O)N(C)c1ccc(Cl)cc1C(=O)c1ccccc1 [Example 8, hydrochloride]", "recorded_result": 1}
{"molecule": "CN1CCN(CC(=O)N(C)c2ccc(Cl)cc2C(=O)c2ccccc2)CC1", "recorded_result": 5}
{"molecule": "CN(C)CC(=O)N(C)c1ccc(Cl)cc1C(=O)c1ccccc1", "recorded_result": 20}
{"molecule": "C#CC1(NCC(=O)N(C)c2ccc(Cl)cc2C(=O)c2ccccc2)CCCCC1 [Example 9, hydrochloride]", "recorded_result": 3}
{"molecule": "CN(CCO)CC(=O)N(C)c1ccc(Cl)cc1C(=O)c1ccccc1", "recorded_result": 20}

Prompt: Specify measured solubility in ethanol for CN(C(=O)CNC1CCCCC1)c1ccc(Cl)cc1C(=O)c1ccccc1 [Example 11, hydrochloride] .
Response: 3

Prompt: Give me measured solubility in ethanol, please, for this molecule: CN(C(=O)CNC(C)(C)CO)c1ccc(Cl)cc1C(=O)c1ccccc1
Response: 10

Prompt: Provide measured solubility in ethanol value, entry: CCN(CCO)CC(=O)N(C)c1ccc(Cl)cc1C(=O)c1ccccc1
Response: 10

Prompt: Answer with the recorded solubility in ethanol for the molecule listed here: CN(C(=O)Cn1ccnc1)c1ccc(Cl)cc1C(=O)c1ccccc1
Response: 10
